assay: Acute toxicity (oral, 72 hours); assay type: in vivo, male mice (ddY-strain); settings: mouse, in vivo; oral, mice, deaths within 72 hours, probit method
endpoint_name: LD50 at 72 h (mg/kg)

> print(dat)
                            entry.smiles  endpoint.name  endpoint.result
1  Cc1cc(Cl)ccc1-n1c(CF)nc2ccc(N)cc2c1=O   LD50 at 72 h              702
